System: OVCAR-4 ovarian
method.notes: NCI-60 one-dose screen, 48 h (100 = growth as untreated, 0 = no growth, -100 = all killed)
conditions: 10 µM unless noted
About 83,000 compounds went through this panel and 20% of them were active in at least one assay; those are over-represented in the sample as a whole.
assay.readout: growth (%)
State the answer as a number, implicitly in %.

# get_value(readout='growth', item= C[N+]1(CCc2ccccc2)CCC(CCC2CC[N+](C)(CCc3ccccc3)CC2)CC1 (stereo not drawn) ) 103

# get_value(readout='growth', item= COc1cccc2c1C(=O)c1c(O)c3c(c(O)c1C2=O)C[C@@](O)(/C(C)=N/NC(=O)c1cccc([N+](=O)[O-])c1)C[C@@H]3OC1CC(N)C(O)C(C)O1 (stereo partly drawn) ) -17.3

# get_value(readout='growth', item= O=C(c1ccccc1)c1ccco1 ) 99.4

# get_value(readout='growth', item= N#Cc1cnc2cc(OC[C@H](O)CO)c(NC(=O)CC3CSSC3)cc2c1Nc1ccc(OCc2cccc(F)c2)c(Cl)c1 ) -62.9

# get_value(readout='growth', item= O=C1NC(=O)/C(=C\c2ccccc2)C2=C1CCCC2 ) 91.2

# get_value(readout='growth', item= CCC(c1ccccc1)c1noc(CCN(CC)CC)n1 (stereo not drawn) ) 109

# get_value(readout='growth', item= CCN1C2=C(SC(=S)C1=C1SC(C(=O)OC)=C(C(=O)OC)S1)SC(=Nc1ccc(OC)cc1)C2=O ) 5.88

# get_value(readout='growth', item= S=c1[nH]nc2sc3ccccc3n12 ) 103

# get_value(readout='growth', item= CSc1ccc2c(c1)N(CCC1CCCCN1C)c1ccccc1S2 (stereo not drawn) ) 64

# get_value(readout='growth', item= O=C1c2ccccc2-c2c1nc1ccccc1[n+]2[O-] ) 115

# get_value(readout='growth', item= Cc1nnc(Nc2ccc(NC(=O)Nc3ccc(Cl)cc3)cc2)c2ccccc12 ) 42.6

# get_value(readout='growth', item= C[N+]1(CCC[N+]2(C)C[C@@H]3[C@H](C2)[C@@H]2C=C[C@H]3C2)CCOCC1 (stereo partly drawn) ) 112

# get_value(readout='growth', item= CCC(CC)NCCCCCNc1cc(OC)cc2cccnc12 ) 32.1

# get_value(readout='growth', item= Cn1cc(-c2csc(-c3cn(C)c4ncccc34)n2)c2cccnc21 ) 100

# get_value(readout='growth', item= COc1ccc(-n2nnc(C(=O)O)c2-c2cc(OC)c(OC)c(OC)c2)cc1 ) 109

# get_value(readout='growth', item= Cc1cc(C)c(OC(=O)CSc2nc3ccccc3c(=O)n2CCc2ccccc2)cc1C ) 101

# get_value(readout='growth', item= COc1ccc(-c2cc(Cc3cccs3)c(=O)n(Cn3cncn3)n2)cc1 ) 98.5

# get_value(readout='growth', item= CC(=O)Oc1ccc(C2OC(c3ccc4ccccc4c3OC(C)=O)=NN2C(C)=O)c(OC(C)=O)c1 (stereo not drawn) ) 32.2

# get_value(readout='growth', item= CCC1=C(c2ccc(OC)cc2)C(C)Oc2cc(OC(C)=O)ccc21 (stereo not drawn) ) 72.4

# get_value(readout='growth', item= COc1cc(C2CC(=O)Nc3c2cc(Br)c2ccccc32)cc(Br)c1OC (stereo not drawn) ) -64.2

# get_value(readout='growth', item= Clc1nc(Cl)c2ncn(-c3ccccc3)c2n1 ) 68.9

# get_value(readout='growth', item= CC[C@@H]1OC(=O)[C@H](C)[C@@H](O[C@H]2C[C@@](C)(OC)[C@@H](O)[C@H](C)O2)[C@H](C)[C@@H](O[C@@H]2O[C@H](C)C[C@H](N(C)C)[C@H]2O)[C@](C)(O)C[C@@H](C)[C@@H]2N[C@@H](COCCOC)O[C@H]([C@H]2C)[C@]1(C)O ) 106

# get_value(readout='growth', item= O=C(Oc1ccc[nH]c1=O)c1cccc(Cl)c1 ) 54.6

====

Test system: M14 melanoma
method.notes: NCI-60 one-dose screen, 48 h
conditions: 10 µM unless noted
The panel holds about 83,000 compounds, 20% with a hit somewhere; the sample as a whole holds those more often. The source made the active and inactive calls. Rule for the calls: active = growth percent below 10; inactive = the rest.
Hi there, use one of these labels in your reply, thanks! True (active), False (inactive)

Look up the recorded call for O=C1OC(c2ccc(-c3ccccc3)cc2)=C/C1=C/c1cccs1 in this test. False

Look up the recorded call for O=C1CC(=O)N(c2ccccc2)O1 in this test. False

Look up the recorded call for C/C(=N\N1CC(=O)NC1=O)c1ccc([N+](=O)[O-])o1 in this test. False

Look up the recorded call for c1cnc2ccc3ncccc3c2c1 in this test. False

Look up the recorded call for O=C1C[C@@H]2/C(=C(O)\C=C\c3ccccc3)C(=O)C=C[C@@H]2O1 in this test. True

====

Please respond with reported growth for every item in the list.
Tested on: HCC-2998 colon
method.notes: NCI-60 one-dose screen, 48 h (100 = growth as untreated, 0 = no growth, -100 = all killed)
conditions: 10 µM unless noted
The panel holds about 83,000 compounds, 20% with a hit somewhere; the sample as a whole holds those more often.
State the answer as a number, implicitly in %.

# get_value(readout='growth', item= C=C(C)[C@H]1CC/C(C)=C/CC[C@]2(C)O[C@H]2CC/C(COC(C)=O)=C\C1=O ) 103

# get_value(readout='growth', item= Cc1cc(Cl)ccc1Nc1nc(C(F)(F)F)ccc1C(=O)NCC(=O)N/N=C/c1c(Cl)cccc1Cl ) 92.9

# get_value(readout='growth', item= CC(=O)c1nc2ccccc2n1CCn1cc(CC(N)C(=O)O)c2ccccc21 (stereo not given) ) 102

# get_value(readout='growth', item= O=C(c1nn(-c2ccc(Cl)cc2)cc1O)n1nc(C(F)(F)F)cc1-c1ccccc1 ) 43.2

# get_value(readout='growth', item= O=C1CCCN1C1CCN(Cc2cc3ccccc3[nH]c2=O)c2ccccc21 (stereo not given) ) 96.4

# get_value(readout='growth', item= COc1cc(OC)c2sc(-c3ccc(-n4cncc4-c4ccc(N)cc4)cc3)nc2c1 ) 96.2

# get_value(readout='growth', item= Cc1cc2cn3c4cccnc4[nH]c(=O)c3c2cc1C ) 60

# get_value(readout='growth', item= CCn1c2ccccc2c2ccc(C(C)=O)cc21 ) 108

# get_value(readout='growth', item= COc1ccc2nc(-c3ccc(-n4cncc4-c4ccc(OC)c(N)c4)cc3)sc2c1 ) 111

# get_value(readout='growth', item= CN=C(NC)N/N=C(C)\C=N\NC(=NC)NC ) 110

====

Test system: HCT-15 colon
method.notes: NCI-60 one-dose screen, 48 h
conditions: 10 µM unless noted
About 83,000 compounds went through this panel and 20% of them were active in at least one assay; those are over-represented in the sample as a whole. Activity calls are given as the source filed them. Rule for the calls: active = growth percent below 10; inactive = the rest.
Hi there, use one of these labels in your reply, thanks! t for active, f for inactive

Look up the recorded call for Nc1nc(SCc2ccccc2Cl)c(-c2ccccc2)c(SCc2ccccc2Cl)n1 in this test. f

Look up the recorded call for Nc1ncc(-c2cnn(C3CCNCC3)c2)cc1-c1nc2cc(Cl)ccc2o1 in this test. t

Look up the recorded call for O=C1/C(=N/O)CCc2ccccc21 in this test. f

Look up the recorded call for c1ccc2cc(C[n+]3ccn(CCCCCCCn4cc[n+](Cc5ccc6ccccc6c5)c4)c3)ccc2c1 in this test. f

Look up the recorded call for COc1ccc2[nH]cc(/C=C3/C(=O)Nc4ccc(F)cc43)c2c1 in this test. f

Look up the recorded call for CC(NC(=O)C(C)Oc1ccc(Cl)cc1Cl)C(=O)O (configuration not stated) in this test. f

Look up the recorded call for O=c1ccn(C2CCCO2)c(=O)[nH]1 (configuration not stated) in this test. f

====

Test system: NCI-H226 lung
method.notes: NCI-60 one-dose screen, 48 h (100 = growth as untreated, 0 = no growth, -100 = all killed)
conditions: 10 µM unless noted
About 83,000 compounds went through this panel and 20% of them were active in at least one assay; those are over-represented in the sample as a whole. The source made the active and inactive calls. How the source made its calls: active means growth percent below 10; inactive means the rest.
assay.readout: growth

# get_value(readout='growth', item= Cc1cc2c(cc1[N+](=O)[O-])NC(CNC(C)C)CC2 (centres undefined) ) 93.6% (inactive)

# get_value(readout='growth', item= CC/C(=C\c1ccc(N(C)C)cc1)c1ccncc1 ) 74.8% (inactive)

# get_value(readout='growth', item= CC(=O)c1cc(C(=O)c2ccc3c(c2)Sc2ccccc2N3)c2c(C)cc(C)cn12 ) 30% (inactive)

# get_value(readout='growth', item= Nc1nc(Cl)c2[nH]cnc2n1 ) 101% (inactive)

# get_value(readout='growth', item= COc1ccc2[nH]cc(/C=C3/C(=O)Nc4ccc(Cl)cc43)c2c1 ) 60.1% (inactive)

# get_value(readout='growth', item= CC(O)c1nc2c(c(=O)n(C)c(=O)n2C)n1C (centres undefined) ) 104% (inactive)

# get_value(readout='growth', item= N#CCNc1ccccc1N ) 101% (inactive)

# get_value(readout='growth', item= O=NC1CC=CCC1c1ccccc1 (centres undefined) ) 105% (inactive)

# get_value(readout='growth', item= COc1cc(OC)c2sc(-c3ccc(-n4cncc4-c4ccc(N)cc4)cc3)nc2c1 ) 98.7% (inactive)

# get_value(readout='growth', item= O=Cc1c[nH]c2ccc(NC(=O)OCc3ccccc3)cc12 ) 89.7% (inactive)

# get_value(readout='growth', item= CCN(CC)CCCNCCCNc1cc(OC)cc2cccnc12 ) 81.9% (inactive)

# get_value(readout='growth', item= CO[C@H]1/C=C/O[C@@]2(C)Oc3c(C)c(O)c4c(O)c(c(/C=N/N5CCN(C)CC5)c(O)c4c3C2=O)NC(=O)/C(C)=C\C=C\C(C)[C@H](O)[C@@H](C)[C@@H](O)[C@@H](C)[C@@H](OC(C)=O)[C@@H]1C (some centres undefined) ) 84.5% (inactive)

# get_value(readout='growth', item= Cc1cc2c(cc1C)Nc1sc(NC(=O)CN3CCN(C)CC3)nc1C(=O)N2 ) 105% (inactive)

# get_value(readout='growth', item= O=C(/C=C/c1ccccc1Cl)c1ccc(O)cc1 ) 95.2% (inactive)

# get_value(readout='growth', item= CN(C)c1ccc(/C=C\c2ccnc3ccccc23)cc1 ) 39% (inactive)

# get_value(readout='growth', item= CCOc1nc(-c2ccccc2)cc2c(O)c(-c3nnco3)[nH]c(=O)c12 ) 64.2% (inactive)

# get_value(readout='growth', item= Cn1cc(-c2nc(-c3c[nH]c4ncccc34)cs2)c2cccnc21 ) 70% (inactive)

# get_value(readout='growth', item= NC(=O)SCC(=O)Nc1ccccc1-c1ccccc1 ) 117% (inactive)

# get_value(readout='growth', item= Clc1ccc([C@@H]2C[C@@H]3Cc4cc(Br)c5ccccc5c4N2O3)c(Cl)c1 ) 95.7% (inactive)

# get_value(readout='growth', item= O=C(Nc1ccc(OCc2nnc(-c3ccccc3)o2)c(F)c1)Nc1ccc(Cl)c(C(F)(F)F)c1 ) 59.3% (inactive)

# get_value(readout='growth', item= CCCC[N+](CCCC)=c1ccc2nc3c(C)cc(N(CC)CC)cc3sc-2c1 ) 18.4% (inactive)

# get_value(readout='growth', item= Cc1c(C(N)=O)sc2ncn(Cc3ccccc3)c(=O)c12 ) 96.8% (inactive)

# get_value(readout='growth', item= CCCc1nn(C)c2c(=O)[nH]c(-c3cc(S(=O)(=O)N4CCN(C)CC4)ccc3OCC)nc12 ) 102% (inactive)

# get_value(readout='growth', item= O=C(O)c1ccc(NC(=O)c2cccc(Nc3ccnc(C(F)(F)F)c3)c2)cc1 ) 99.8% (inactive)

# get_value(readout='growth', item= c1ccc(-n2nnnc2-c2cccc3ccccc23)cc1 ) 79.3% (inactive)

# get_value(readout='growth', item= CN(C(=O)c1ccccc1)N(C)C(=O)c1ccccc1 ) 112% (inactive)

# get_value(readout='growth', item= O=C1OCCCCCCCCCC#Cc2ccccc21 ) 110% (inactive)

# get_value(readout='growth', item= O=c1ccn(C2CCCO2)c(=O)[nH]1 (centres undefined) ) 114% (inactive)

# get_value(readout='growth', item= COc1cc(C2NC(c3ccc(Cl)cc3)C(C)C(=NC(=O)c3cnccn3)C2C)cc(OC)c1OC (centres undefined) ) 102% (inactive)
